Value source: paper PMC10700347

Test system: H292 non-small-cell lung cancer cell line
Assay: cells
Format: cell-based
Conditions: Homo sapiens, NCI-H292; H292, MTT, 72 h; read-out: IC50 ± S.D. H292
Measured quantity: IC50

1) C/C=C(/C)C(=O)OC[C@H]1c2c(c(OC(=O)c3ccc4ccccc4n3)c(C)c3c2OCO3)C[C@H]2[C@H]3C4=C(C[C@@H]([C@H](C#N)N12)N3C)C(=O)C(C)=C(OC)C4=O
36.5 nM
2) CC=C(C)C(=O)OCC1c2c(c(OC(C)=O)c(C)c3c2OCO3)CC2C3C4=C(CC(C(C#N)N12)N3C)C(=O)C(C)=C(OC)C4=O (centres unmarked)
43.4 nM
3) C/C=C(/C)C(=O)OC[C@H]1c2c(c(OC(=O)[C@@H](NC(=O)OC(C)(C)C)C(C)C)c(C)c3c2OCO3)C[C@H]2[C@H]3C4=C(C[C@@H]([C@H](C#N)N12)N3C)C(=O)C(C)=C(OC)C4=O
89.6 nM
4) C/C=C(/C)C(=O)OC[C@H]1c2c(c(OC(=O)c3ccccn3)c(C)c3c2OCO3)C[C@H]2[C@H]3C4=C(C[C@@H]([C@H](C#N)N12)N3C)C(=O)C(C)=C(OC)C4=O
51.5 nM

Asked: Fill in: IC50 of "C/C=C(/C)C(=O)OC[C@H]1c2c(c(OC(=O)c3ccncc3)c(C)c3c2OCO3)C[C@H]2[C@H]3C4=C(C[C@@H]([C@H](C#N)N12)N3C)C(=O)C(C)=C(OC)C4=O" is ___
Given back: 35.3 nM
